Tested on: ethanologen yeast PNY 827
Assay: microbe, parasite or virus in culture
Type: cell-based, Saccharomyces cerevisiae
Details: read-out: IC50 on growth (inhibitor concentration with 50% μ°max); derived from inhibition kinetics and fitted parameters
RESULT TYPE: pIC50
One number for each entry, as −log10 of the molar value.

If you can, please state the reported pIC50 value of O=S([O-])[O-].[Na+].[Na+] [sulfite, sodium sulfite] .
2.21

---

Record form. Attribute: Ki. Fill in for each entry.
Biological target: ethanologen yeast PNY 827
Assay: microbe, parasite or virus in culture
Type: cell-based, Saccharomyces cerevisiae
Conditions: fit to hybrid inhibition kinetics model; read-out: KI (inhibitory constant on growth)
Give bare numbers, in µM.

{"columns": ["COMPOUND", "SUBJECT OF TEST", "VALUE OBSERVED"],
 "data": [
  ["O=S([O-])[O-].[Na+].[Na+] [sulfite, sodium sulfite]", "ethanologen yeast PNY 827", 4400]
]}

Next up:
Any idea what its Ki is? The compound is `c1cn[nH]c1`
2800

Where do the numbers come from? From patent US9771602B2.
